Molecular target: Forkhead box protein M1 (Homo sapiens, UniProt Q08050)
Sequence (Q08050 whole entry): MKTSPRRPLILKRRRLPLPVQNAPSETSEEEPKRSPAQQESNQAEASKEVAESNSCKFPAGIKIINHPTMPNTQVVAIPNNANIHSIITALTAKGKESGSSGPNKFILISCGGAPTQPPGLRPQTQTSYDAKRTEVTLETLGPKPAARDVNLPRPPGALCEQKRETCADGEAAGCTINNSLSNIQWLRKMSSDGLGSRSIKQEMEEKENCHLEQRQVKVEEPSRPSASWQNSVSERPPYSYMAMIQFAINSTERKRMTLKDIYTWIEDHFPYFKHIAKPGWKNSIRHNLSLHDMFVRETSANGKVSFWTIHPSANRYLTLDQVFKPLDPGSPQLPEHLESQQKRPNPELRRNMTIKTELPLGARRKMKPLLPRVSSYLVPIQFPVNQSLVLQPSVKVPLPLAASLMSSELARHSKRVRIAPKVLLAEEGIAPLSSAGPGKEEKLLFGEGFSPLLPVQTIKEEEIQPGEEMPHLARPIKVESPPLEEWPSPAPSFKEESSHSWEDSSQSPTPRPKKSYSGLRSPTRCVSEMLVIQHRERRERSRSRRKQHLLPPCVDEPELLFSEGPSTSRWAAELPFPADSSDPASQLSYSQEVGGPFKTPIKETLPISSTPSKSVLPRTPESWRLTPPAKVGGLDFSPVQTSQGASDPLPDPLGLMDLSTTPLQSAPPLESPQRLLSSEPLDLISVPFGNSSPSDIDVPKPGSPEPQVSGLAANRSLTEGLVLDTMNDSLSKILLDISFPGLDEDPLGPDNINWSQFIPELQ
Assay: Inhibition of recombinant FOXM1-DBD (unknown origin) binding to DNA measured after 30 mins by biochemical EMSA assay
pIC50: −log10 of the molar value.
outcome measure: pIC50

> print(dat)
                           structure.smiles                              assay.system  outcome.measure  reported
1  Nc1c(C(=O)Nc2ccc(F)cc2)sc2nc(-c3cccs3)cc(C(F)(F)F)c12  Forkhead box protein M1 (Homo sapiens, UniProt Q08050)            pIC50      4.55
